These entries and their values trace back to ChEMBL document CHEMBL1143171.

Target: Peroxisome proliferator-activated receptor delta (Homo sapiens) (UniProt Q03181)
Sequence (Q03181 whole entry): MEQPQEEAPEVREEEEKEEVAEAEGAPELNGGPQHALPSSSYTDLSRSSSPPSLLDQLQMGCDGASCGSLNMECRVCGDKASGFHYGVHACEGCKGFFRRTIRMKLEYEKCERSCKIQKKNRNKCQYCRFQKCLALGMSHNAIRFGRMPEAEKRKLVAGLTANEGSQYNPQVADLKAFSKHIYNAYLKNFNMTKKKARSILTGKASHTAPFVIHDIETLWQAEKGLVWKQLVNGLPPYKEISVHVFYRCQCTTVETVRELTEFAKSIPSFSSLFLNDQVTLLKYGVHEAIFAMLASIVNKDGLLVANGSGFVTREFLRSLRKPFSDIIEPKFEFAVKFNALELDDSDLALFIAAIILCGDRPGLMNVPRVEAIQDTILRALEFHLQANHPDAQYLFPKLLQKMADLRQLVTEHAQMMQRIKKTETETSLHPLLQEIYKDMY
Test: Agonist activity at human PPARdelta expressed in CV1 cells at 10 uM by transactivation assay
Type: functional, cell-based
Conditions: CV-1
measured endpoint: Activity (%)
Just the number please, in %, no unit attached.

Cc1oc(-c2ccc(Cl)cc2)nc1CCCC[C@H]1CO[C@@](C)(C(=O)O)OC1 = 9
Cc1cccc(-c2nc(CCCC[C@H]3CO[C@@](C)(C(=O)O)OC3)c(C)o2)c1 = 16
CCc1oc(-c2ccc(C)cc2)nc1CCCC[C@H]1CO[C@@](C)(C(=O)O)OC1 = 3
Cc1ccc(-c2nc(CCCC[C@H]3CO[C@@](C)(C(=O)O)OC3)c(C(F)(F)F)o2)cc1 = 24

Lab note: next compound to report on.
Form field: reported Activity of Cc1ccc(-c2nc(CCCC[C@H]3CO[C@@](C)(C(=O)O)OC3)c(C)o2)cc1
7
